Reference for the values: paper PMC7484342

- System tested: hVKORL (Homo sapiens, UniProt Q8N0U8)
- Sequence (Q8N0U8 1-176): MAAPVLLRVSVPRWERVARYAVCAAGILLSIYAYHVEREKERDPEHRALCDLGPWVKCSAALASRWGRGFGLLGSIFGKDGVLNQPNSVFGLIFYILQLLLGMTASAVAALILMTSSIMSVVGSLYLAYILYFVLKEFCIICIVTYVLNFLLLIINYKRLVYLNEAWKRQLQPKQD
Observed property: pIC50
# log scale: pIC50 equals minus log10 of the concentration in mol/L

// fetch hVKORL (Homo sapiens, UniProt Q8N0U8) pIC50 for CC(=O)CC(c1ccccc1)c1c(O)c2ccccc2oc1=O (stereo not shown)
6.62
